The reported numbers originate from the Human Domainome abundance scans (Beltran et al. 2025).

We begin with a simple list: items and their reported abundance fitness.
B1: MEF2-activating motif and SAP domain-containing transcriptional regulator, residues 170 to 204; numbered along this chain, Q6ZN01 (parent)
chain: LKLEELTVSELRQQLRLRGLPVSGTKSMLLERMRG

Variants of: B1
Assay: abundance fitness (aPCA) (normalised: wild type 0, dead -1); higher = more abundant; growth selection in yeast, the domain comes from the species named
Conditions: Homo sapiens
REPORTED ENDPOINT: abundance fitness

mutations=E31G reported_endpoint="abundance fitness" result=-0.279
mutations=L3C reported_endpoint="abundance fitness" result=-1.03
mutations=E4C reported_endpoint="abundance fitness" result=-0.518
mutations=R12Q reported_endpoint="abundance fitness" result=-0.016
